Cited source for all entries: ChEMBL document CHEMBL1201862

# System: SNB-19
# Measurement Description: NCI tumour cell line growth inhibition, 48 h
Active and inactive are the calls of the source. Cut-off read from the data, not from the text of the source: active = GI50 up to about 1.1 µM and inactive = higher.
Outcome Measure: GI50

>  <Molecule>
Cc1c(C)c(C)c(-n2c(=O)n(C)c(=O)n2-c2cc(C(C)(C)C)cc(C(C)(C)C)c2O)c(C)c1C

>  <GI50>
5.74 µM (inactive)

$$$$
>  <Molecule>
Cc1cc(S(=O)(=O)Nc2nnc3cc(C(F)(F)F)cc(C)n23)c(S)cc1Cl

>  <GI50>
27.5 µM (inactive)

$$$$
>  <Molecule>
CC(C)CCC[C@@H](C)C1CCC2[C@@H]3CC=C4C[C@@H](OC(=O)CCC(=O)NCC[N+](C)(C)CCCS(=O)(=O)[O-])CC[C@]4(C)C3CC[C@@]21C (some centres undefined)

>  <GI50>
24.3 µM (inactive)

$$$$

Here is another molecule to look at.
Recorded GI50 for Brc1cccc(/N=N/N2CCCC2)c1 with SNB-19, please?
> 100 µM (inactive)

---

# Tested on: OVCAR-3
# Measurement Description: NCI tumour cell line growth inhibition, 48 h
The source made the active and inactive calls. No stated cut-off is given here; in the data, active = GI50 up to about 1.1 µM and inactive = higher.
Exercise: state measured GI50 for each of the molecules provided.

Study these solved cases before continuing.
>  <Molecule>
CC1=CC(C)C(C)N(CC2=NCCN2)c2ccccc21 (centres undefined)

>  <Tgt>
OVCAR-3

>  <Meas Value>
56.8 µM (inactive)

$$$$
>  <Molecule>
Cc1n[nH]c(C(F)(F)F)c1/N=N/N1CCOCC1

>  <Tgt>
OVCAR-3

>  <Meas Value>
7.21 µM (inactive)

$$$$
>  <Molecule>
CCOC(=O)C1S/C(=N\c2cccc(Cl)c2C)N=C1C (centres undefined)

>  <Tgt>
OVCAR-3

>  <Meas Value>
22.9 µM (inactive)

$$$$

# batch: return GI50 for each of the 2 molecules below
1. Cn1cnc([N+](=O)[O-])c1Sc1nc(N)nc2c1ncn2C1OC(CO)C(O)C1O (centres undefined)
2. CC(C)(C)c1cc(OCc2nnc3sc(Cc4ccccc4)nn23)c(Cl)cc1OCc1nnc2sc(Cc3ccccc3)nn12

["4.9 µM (inactive)", "30.7 µM (inactive)"]

# batch: return GI50 for each of the 2 molecules below
1. COC(=O)c1ccccc1C1CN=NC12Cc1c(ccc(C)c1C)C2=O (centres undefined)
2. CC1=C[C@H]([C@H]2C=C(C)C(C(N)=O)=CN2Cc2c(Cl)cccc2Cl)N(Cc2c(Cl)cccc2Cl)C=C1C(N)=O

45.7 µM (inactive)
> 75 µM (inactive)

# batch: return GI50 for each of the 2 molecules below
1. COc1ccc(N(C)CN(C)c2nc(N(C)C)nc(N(C)C)n2)cc1
2. CSC(=S)Nc1cc(C)cc(C)n1

["> 100 µM (inactive)", "> 31.6 µM (inactive)"]

# batch: return GI50 for each of the 3 molecules below
1. O=C1/C(=C/c2ccccc2)Oc2cc(O)ccc21
2. Sc1ncnc2c1ncn2C1CCCO1 (centres undefined)
3. C=CCCN1CCc2c([nH]c3ccccc23)C1C(=O)O (centres undefined)

> 100 µM (inactive)
22.6 µM (inactive)
> 100 µM (inactive)

# batch: return GI50 for each of the 2 molecules below
1. CSc1c(C(=O)Nc2ccc(Cl)cc2)c(N)n(N)c(=O)c1C#N
2. CCC(CS(=O)(=O)O)[N+](=O)[O-] (centres undefined)

["48.8 µM (inactive)", "> 100 µM (inactive)"]
